Assay: Metabolic stability assay in human liver microsomes (HLM)
Assay type: in vitro ADME
Settings: human, microsomes, 1 μM
Method: Protocol 1: Studies were carried out in human and rat liver microsomes (“HLM” and “RLM,” respectively). Human and rat liver microsomes were purchased from BD Gentest. DMSO stocks were prepared for the test compounds. […] Aliquots of the supernatant were removed, diluted 1:1 into distilled water, and analyzed by LC-MS/MS. […] Half-lives were calculated using Excel software, fitting to a single-phase exponential decay equation. […]
readout type: HLM (mL/min/kg)
Numbers only, in mL/min/kg.

These recorded examples may help you get a feel for the data.
structure_smiles=CC(=O)Nc1cc(C)c2c(C(=O)OCC34CCN(CC3)CC4)c[nH]c2c1 readout_type=HLM measurement=12.96
structure_smiles=COc1c(C)ccc2[nH]cc(C(=O)OCC34CCN(CC3)CC4)c12 readout_type=HLM measurement=5.749

Now consider the entry below.
Request: Return reported HLM; argument: COc1cc2[nH]cc(C(=O)OCC34CCN(CC3)CC4)c2cc1C
Response: 4.868
